- system: UniProt:P13945
- Sequence (P13945 whole entry, looked up): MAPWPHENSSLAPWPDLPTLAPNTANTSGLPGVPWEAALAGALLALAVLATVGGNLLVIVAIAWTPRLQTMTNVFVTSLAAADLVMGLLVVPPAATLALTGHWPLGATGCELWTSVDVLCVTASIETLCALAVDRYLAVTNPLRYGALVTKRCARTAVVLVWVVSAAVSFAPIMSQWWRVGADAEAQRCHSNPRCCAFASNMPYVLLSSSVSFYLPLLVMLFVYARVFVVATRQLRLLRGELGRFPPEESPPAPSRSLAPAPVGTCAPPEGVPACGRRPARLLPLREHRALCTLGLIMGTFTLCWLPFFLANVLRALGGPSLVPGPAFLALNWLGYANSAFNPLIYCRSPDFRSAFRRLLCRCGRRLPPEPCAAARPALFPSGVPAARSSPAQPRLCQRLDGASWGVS
metric.name: EC50 (nM)
Answer in nM, number only, no unit symbol.

Examples with their reported EC50 follow.
> print(dat)
                                        mol   u  assay.value
1  O=C(Cc1ccccn1)Nc1ccc(CCNC[C@H](O)COc2ccc(O)cc2)cc1  nM          290
2  CN(C(=O)Cc1nccn1Cc1ccccc1)c1ccc(CCNC[C@H](O)COc2ccccc2)cc1  nM          280
3  O=C(Cc1ncc[nH]1)Nc1ccc(CCNC[C@H](O)COc2ccccc2)cc1  nM         9600

Incoming: Request body: readout EC50, system UniProt:P13945, query O=C(Cc1cccc(OCc2ccccc2)n1)Nc1ccc(CCNC[C@H](O)COc2ccccc2)cc1 . Return the value.
Outgoing: 2500

Incoming: Request - read-out EC50 | tested on UniProt:P13945 | compound Cc1cc(C)nc(CC(=O)Nc2ccc(CCNC[C@H](O)COc3ccccc3)cc2)c1
Outgoing: 280

Incoming: Recall the recorded EC50 for O=C(Cc1ccccn1)Nc1ccc(CCNC[C@H](O)COc2cccc3[nH]ccc23)cc1 with UniProt:P13945 and state it.
Outgoing: 1300

Incoming: Reported EC50 for UniProt:P13945, given Cc1cccnc1CC(=O)Nc1ccc(CCNC[C@H](O)COc2ccccc2)cc1 ?
Outgoing: 330

Incoming: Find EC50 (UniProt:P13945) for the entry O=C(Cc1nccn1Cc1ccccc1)Nc1ccc(CCNC[C@H](O)COc2ccccc2)cc1
Outgoing: 180

----------
- system: Beta-1 adrenergic receptor (Homo sapiens) (UniProt P08588)
- test.parameters: CHO
Rule: satisfied for Intrinsic activity not less than 0.1, not satisfied for anything less.

> print(dat)
                                        mol                                    system    label.class
1  O=C(Cc1nccn1Cc1ccc(Br)cc1)Nc1ccc(CCNC[C@H](O)COc2ccccc2)cc1  Beta-1 adrenergic receptor (Homo sapiens) (UniProt P08588)      satisfied
2  O=C(Cc1ccccn1)Nc1ccc(CCNC[C@H](O)COc2cccc3[nH]ccc23)cc1  Beta-1 adrenergic receptor (Homo sapiens) (UniProt P08588)  not satisfied
3  O=C(Cc1cccc(OCc2ccccc2)n1)Nc1ccc(CCNC[C@H](O)COc2ccccc2)cc1  Beta-1 adrenergic receptor (Homo sapiens) (UniProt P08588)      satisfied
4  CS(=O)(=O)Nc1ccc(OC[C@@H](O)CNCCc2ccc(NC(=O)Cc3ccccn3)cc2)cc1  Beta-1 adrenergic receptor (Homo sapiens) (UniProt P08588)  not satisfied
5  CCCN(C(=O)Cc1nccn1Cc1ccccc1)c1ccc(CCNC[C@H](O)COc2ccccc2)cc1  Beta-1 adrenergic receptor (Homo sapiens) (UniProt P08588)  not satisfied

Incoming: Record O=C(Cc1ccccn1)Nc1ccc(CCNC[C@H](O)COc2ccccc2)cc1 ; criterion: Intrinsic activity no lower than 0.1. Met?
Outgoing: satisfied

Incoming: Form field: Intrinsic activity at least 0.1? Entry: Cc1cc(C)nc(CC(=O)Nc2ccc(CCNC[C@H](O)COc3ccccc3)cc2)c1
Outgoing: satisfied

Incoming: Check this compound for Intrinsic activity at or above 0.1: O=C(Cc1ncc[nH]1)Nc1ccc(CCNC[C@H](O)COc2ccccc2)cc1
Outgoing: satisfied

Incoming: Does the reported Intrinsic activity for O=C(Cc1nccn1Cc1ccccc1)Nc1ccc(CCNC[C@H](O)COc2ccccc2)cc1 fall at or above the 0.1 mark?
Outgoing: satisfied

Incoming: Hi, just wondering whether Cc1cccnc1CC(=O)Nc1ccc(CCNC[C@H](O)COc2ccccc2)cc1 shows Intrinsic activity of 0.1 or higher.
Outgoing: satisfied

Incoming: Exam item: decide whether the reported Intrinsic activity for O=C(Cc1ccccn1)Nc1ccc(CCNC[C@H](O)COc2ccc(O)cc2)cc1 is at least 0.1.
Outgoing: satisfied

Incoming: Hi team, for O=C(Cc1nccn1Cc1ccc(Cl)cc1)Nc1ccc(CCNC[C@H](O)COc2ccccc2)cc1 , is the recorded Intrinsic activity at or above 0.1?
Outgoing: satisfied

Incoming: Test whether the compound CN(C(=O)Cc1nccn1Cc1ccccc1)c1ccc(CCNC[C@H](O)COc2ccccc2)cc1 records Intrinsic activity of 0.1 or higher.
Outgoing: not satisfied
